molecular target: GlcNAc(b1-3)Gal(b1-4)GlcNAc(b1-3)Gal(b1-4)GlcNAc(b1-2)[GlcNAc(b1-3)Gal(b1-4)GlcNAc(b1-3)Gal(b1-4)GlcNAc(b1-6)]Man(a1-6)[GlcNAc(b1-3)Gal(b1-4)GlcNAc(b1-3)Gal(b1-4)GlcNAc(b1-2)Man(a1-3)]Man(b1-4)GlcNAc(b1-4)[Fuc(a1-6)]GlcNAc; experiment: glycan array binding signal (z-score within array); higher = stronger binding; settings: glycan notation: IUPAC condensed, linker removed
This is one part of a sample in which the strongest signals are shown more often than they occur.
readout-kind: glycan array binding signal (z-score)

[ask] Quick check: glycan array binding signal (z-score) of AT5G01260(PC)(40) (Arabidopsis thaliana), Q9LFB0 (protein) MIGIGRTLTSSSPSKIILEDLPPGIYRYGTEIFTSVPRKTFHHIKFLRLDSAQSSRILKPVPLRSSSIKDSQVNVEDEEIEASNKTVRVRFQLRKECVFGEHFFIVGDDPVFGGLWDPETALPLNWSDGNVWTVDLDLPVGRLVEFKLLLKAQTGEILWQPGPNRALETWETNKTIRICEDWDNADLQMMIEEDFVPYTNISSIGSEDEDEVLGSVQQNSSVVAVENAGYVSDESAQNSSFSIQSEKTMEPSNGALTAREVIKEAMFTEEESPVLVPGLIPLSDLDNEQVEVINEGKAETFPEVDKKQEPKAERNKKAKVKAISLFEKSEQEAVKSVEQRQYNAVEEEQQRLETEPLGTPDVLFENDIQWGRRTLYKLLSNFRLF ?
[reply] 0.144
